Listing of recorded IC50 by entry.
- System: HEK293 cells
- Experimental protocol: Redox-based assay to assess HEK293 viability
- Type: cell-based, human
- Measurement context: Homo sapiens, HEK293; 48 hours exposure; highest test concentration 87 μM; EdU value estimated, relative to Emax plateau of 57%
Record the value in nM, omitting the unit from your answer.

{"Query smiles": "C#Cc1cn([C@H]2C[C@H](O)[C@@H](CO)O2)c(=O)[nH]c1=O", "Readout units": "nM", "IC50": 670}

// next entry
Form: item `COc1ccc(C[C@H](N)C(=O)N[C@H]2[C@@H](O)[C@H](n3cnc4c(N(C)C)ncnc43)O[C@@H]2CO)cc1` ; test system HEK293 cells; IC50: 410

* * *

Listing of recorded pIC50 by entry.
- System: T. cruzi intracellular amastigotes
- Experimental protocol: Image-based assay of the number of T. cruzi infected cells (intracellular amastigotes in 3T3 host cells)
- Assay type: cell-based, Trypanosoma cruzi
- Measurement context: Trypanosoma cruzi; 24 hours exposure; highest test concentration 183 μM; read-out: T. cruzi 24 IC50 value
Would you please state pIC50, meaning minus log10 of the concentration in mol/L, as a bare number?

Below, each entry is followed by its recorded pIC50 result.
{"Compound": "C#Cc1cn([C@H]2C[C@H](O)[C@@H](CO)O2)c(=O)nc1N", "pIC50": 4.90}
{"Compound": "CC1CS(=O)(=O)CCN1/N=C/c1ccc([N+](=O)[O-])o1 (stereo not shown)", "pIC50": 5.76}

Note to self: pIC50 recorded for `C#Cc1cn([C@H]2C[C@H](O)[C@@H](CO)O2)c(=O)[nH]c1=O` was 7.14

Note to self: pIC50 recorded for `COc1ccc(C[C@H](N)C(=O)N[C@H]2[C@@H](O)[C@H](n3cnc4c(N(C)C)ncnc43)O[C@@H]2CO)cc1` was 5.12

* * *

Listing of recorded pIC50 by entry.
- Tested on: T. cruzi intracellular amastigotes
- Experimental protocol: Detection of T. cruzi replication following exposure to inhibitors (EdU incorporation vs Hoechst)
- Type: cell-based, Trypanosoma cruzi
- Measurement context: Trypanosoma cruzi; 48 hours exposure; number of Hoechst identified parasites in infected cells; mean ± SD; read-out: IC50 value Amastigotes (Hoechst)
Would you please state pIC50, meaning minus log10 of the concentration in mol/L, as a bare number?

{"Molecule": "O=C(Cn1ccnc1[N+](=O)[O-])NCc1ccccc1", "pIC50": 5.55}

Note to self: pIC50 recorded for `CC[C@@H]([C@H](C)O)n1ncn(-c2ccc(N3CCN(c4ccc(OC[C@@H]5CO[C@@](Cn6cncn6)(c6ccc(F)cc6F)C5)cc4)CC3)cc2)c1=O` was 8.42

Note to self: pIC50 recorded for CC1CS(=O)(=O)CCN1/N=C/c1ccc([N+](=O)[O-])o1 (stereo not drawn) was 6.49

* * *

- System: T. cruzi intracellular amastigotes
- Experimental protocol: Image-based assay of the number of T. cruzi infected cells (intracellular amastigotes in 3T3 host cells)
- Type: cell-based, Trypanosoma cruzi
- Measurement context: Trypanosoma cruzi, 48 h, 183 μM; 48 hours incubation; read-out: inhibition of T. cruzi growth at highest test concentration
Measured metric: inhibition at 183 µM

Below, each entry is followed by its recorded inhibition at 183 µM result.
{"Query smiles": "C#Cc1cn([C@@H]2O[C@H](CO)[C@@H](O)[C@@H]2F)c(=O)[nH]c1=O", "inhibition at 183 µM": "≤ 50%"}
{"Query smiles": "C#Cc1cn([C@@H]2O[C@H](CO)[C@@H](O)[C@@H]2Cl)c(=O)[nH]c1=O", "inhibition at 183 µM": "≤ 50%"}
{"Query smiles": "C#Cc1cn([C@@H]2O[C@H](CO)[C@@H](O)[C@@H]2Br)c(=O)[nH]c1=O", "inhibition at 183 µM": "≤ 50%"}

// next entry
Note to self: inhibition at 183 µM recorded for `C#Cc1cn([C@@H]2O[C@H](CO)[C@@H](O)[C@@H]2I)c(=O)[nH]c1=O` was ≤ 50%

meta.source: paper PMC7112222
